Molecular target: COX-1 (Homo sapiens, UniProt P23219)
Construct: endogenous in cells; host or cells: human whole blood (heparinized, venipuncture)
Sequence (P23219 24-599): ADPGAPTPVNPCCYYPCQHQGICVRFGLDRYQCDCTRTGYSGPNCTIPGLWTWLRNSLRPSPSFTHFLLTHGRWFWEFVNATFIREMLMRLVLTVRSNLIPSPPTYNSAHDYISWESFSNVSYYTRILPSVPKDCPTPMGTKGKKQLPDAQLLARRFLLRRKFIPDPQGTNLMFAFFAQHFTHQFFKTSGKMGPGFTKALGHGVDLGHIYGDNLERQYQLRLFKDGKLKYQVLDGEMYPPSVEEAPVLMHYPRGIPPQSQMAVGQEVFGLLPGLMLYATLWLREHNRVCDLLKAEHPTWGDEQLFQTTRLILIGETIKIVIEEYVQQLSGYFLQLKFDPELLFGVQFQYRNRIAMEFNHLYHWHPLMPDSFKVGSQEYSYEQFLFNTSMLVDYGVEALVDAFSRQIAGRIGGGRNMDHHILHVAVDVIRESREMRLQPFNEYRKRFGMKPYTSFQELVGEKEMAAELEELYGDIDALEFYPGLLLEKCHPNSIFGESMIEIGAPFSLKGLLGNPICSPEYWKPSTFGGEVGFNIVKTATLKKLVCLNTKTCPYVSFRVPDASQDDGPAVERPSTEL
Experiment: Human whole blood assay for COX-1 (A23187 stimulated TxB2)
Assay type: cell-based
Settings: final conc 1 µM, A23187 50 µM
measured_endpoint: Production of TXB2, +Ca^2+ Ionophore (ng/mL)
Your answer is read as ng/mL, so omit the unit and give the number.

Here are 3 compounds together with their reported answers.
Q: Which measured Production of TXB2, +Ca^2+ Ionophore value corresponds to O=C1Nc2ccccc2C1=Cc1cn(CCCn2c3ccccc3c(=O)c3ccccc32)c2ccccc12 [Compound 4c] ?
Result: 1.70

Q: Also check O=C1Nc2ccccc2C1=Cc1cn(C[C@H](O)Cn2c3ccccc3c(=O)c3ccccc32)c2ccccc12 [(S)-3c]
Result: 1.80

Q: Continue with O=C1NC(=O)C(=Cc2cn(CCCn3c4ccccc4c(=O)c4ccccc43)c3ccccc23)C(=O)N1 [Compound 4a]
Result: 1.84

Now consider a different compound.
Q: # Production of TXB2, +Ca^2+ Ionophore lookup, item O=C1NC(=O)C(=Cc2cn(C[C@H](O)Cn3c4ccccc4c(=O)c4ccccc43)c3ccccc23)C(=O)N1 [(S)-3a]
Result: 1.95

###

Reported log10(IC50) values are given for each entry in this list.
Biological target: 5-LOX (Soybean lipoxygenase) (Glycine max)
Construct: purchased Cayman Chemical Co. 760700
Assay: Lipoxygenase inhibitory activity assay
Format: biochemical
The figures below represent log10 of IC50, where IC50 is stated in nM.

Q: Fill in the blank: the reported log10(IC50) of O=C1NC(=O)C(=Cc2cn(CCCn3c4ccccc4c(=O)c4ccccc43)c3ccccc23)C(=O)N1 is ____.
Result: 2.30

Q: What do you have for O=C1NC(=O)C(=Cc2cn(C[C@@H](O)Cn3c4ccccc4c(=O)c4ccccc43)c3ccccc23)C(=O)N1 [(R)-3a] ?
Result: 3.00

Q: Same question for CN1C(=O)C(=Cc2cn(C[C@@H](O)Cn3c4ccccc4c(=O)c4ccccc43)c3ccccc23)C(=O)N(C)C1=O [(R)-3b] please.
Result: 3.30

Q: Entry O=C1NC(=O)C(=Cc2cn(C[C@H](O)Cn3c4ccccc4c(=O)c4ccccc43)c3ccccc23)C(=O)N1 [(S)-3a] please
Result: 2.30

---
Q: Can you share its log10(IC50)? I mean this compound: CN1C(=O)C(=Cc2cn(C[C@H](O)Cn3c4ccccc4c(=O)c4ccccc43)c3ccccc23)C(=O)N(C)C1=O [(S)-3b]
Result: 1.95

Q: One more compound: O=C1NC(=O)C(=Cc2cn(CCCCn3c4ccccc4c(=O)c4ccccc43)c3ccccc23)C(=O)N1
Result: 1.85

###

Listed here are compounds together with their documented IC50.
Biological target: 5-LOX (Soybean lipoxygenase) (Glycine max, UniProt P08170)
Construct: purchased Cayman Chemical Co. 760700
Sequence (P08170 whole entry): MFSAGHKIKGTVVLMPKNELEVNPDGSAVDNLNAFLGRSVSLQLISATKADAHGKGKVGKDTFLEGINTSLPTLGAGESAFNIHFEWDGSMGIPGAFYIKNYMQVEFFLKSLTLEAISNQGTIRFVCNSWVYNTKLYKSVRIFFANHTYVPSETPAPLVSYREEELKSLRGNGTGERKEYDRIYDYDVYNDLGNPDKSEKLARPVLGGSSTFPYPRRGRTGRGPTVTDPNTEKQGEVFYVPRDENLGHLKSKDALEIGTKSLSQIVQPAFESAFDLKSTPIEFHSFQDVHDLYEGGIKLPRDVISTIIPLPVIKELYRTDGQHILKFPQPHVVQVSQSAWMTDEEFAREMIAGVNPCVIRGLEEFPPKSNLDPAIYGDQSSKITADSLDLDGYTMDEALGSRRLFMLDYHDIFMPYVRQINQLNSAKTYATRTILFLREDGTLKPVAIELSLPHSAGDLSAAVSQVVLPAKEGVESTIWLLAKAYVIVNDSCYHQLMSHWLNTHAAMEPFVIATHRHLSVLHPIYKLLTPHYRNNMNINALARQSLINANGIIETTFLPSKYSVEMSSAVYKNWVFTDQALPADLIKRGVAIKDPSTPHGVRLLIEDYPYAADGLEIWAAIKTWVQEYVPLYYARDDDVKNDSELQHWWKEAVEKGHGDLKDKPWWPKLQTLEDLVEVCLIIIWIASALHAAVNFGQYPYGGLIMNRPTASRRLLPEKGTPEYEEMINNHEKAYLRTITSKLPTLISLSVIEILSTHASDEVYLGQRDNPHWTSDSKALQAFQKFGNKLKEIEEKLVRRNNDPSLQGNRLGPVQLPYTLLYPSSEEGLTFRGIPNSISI
Assay: Lipoxygenase inhibitory activity assay
Assay type: biochemical
Conditions: soybean lipoxygenase, duplicate; read-out: IC50 5-LOX
Please don't drop the unit; write it after the number.

Q: Recorded IC50 for O=C1Nc2ccccc2C1=Cc1cn(C[C@@H](O)Cn2c3ccccc3c(=O)c3ccccc32)c2ccccc12 [(R)-3c] , please?
Result: 600 nM

Q: Try CC1=NN(c2cccc(Cl)c2)C(=O)C1=Cc1cn(C[C@@H](O)Cn2c3ccccc3c(=O)c3ccccc32)c2ccccc12 [(R)-3e] next.
Result: 300 nM

Q: Entry to check: CC1=NN(c2cccc(Cl)c2)C(=O)C1=Cc1cn(CCCn2c3ccccc3c(=O)c3ccccc32)c2ccccc12
Result: 400 nM

Q: Subsequent entry: O=C1Nc2ccccc2C1=Cc1cn(CCCCn2c3ccccc3c(=O)c3ccccc32)c2ccccc12
Result: 200 nM

Q: Follow-up entry: O=C1Nc2ccccc2C1=Cc1cn(C[C@H](O)Cn2c3ccccc3c(=O)c3ccccc32)c2ccccc12 [(S)-3c]
Result: 500 nM

Q: # repeat for O=C1Nc2ccccc2C1=Cc1cn(CCCn2c3ccccc3c(=O)c3ccccc32)c2ccccc12
Result: 100 nM

Others:
Q: Form field: reported IC50 of CC1=NN(c2cccc(Cl)c2)C(=O)C1=Cc1cn(CCCCn2c3ccccc3c(=O)c3ccccc32)c2ccccc12
Result: 100 nM

Q: Entry to check: O=C1C(=Cc2cn(C[C@@H](O)Cn3c4ccccc4c(=O)c4ccccc43)c3ccccc23)c2ccccc2N1c1c(Cl)cccc1Cl [(R)-3d]
Result: 100 nM

Q: Next up: CC1=NN(c2cccc(Cl)c2)C(=O)C1=Cc1cn(C[C@H](O)Cn2c3ccccc3c(=O)c3ccccc32)c2ccccc12 [(S)-3e]
Result: 700 nM

Q: Now try O=C1C(=Cc2cn(C[C@H](O)Cn3c4ccccc4c(=O)c4ccccc43)c3ccccc23)c2ccccc2N1c1c(Cl)cccc1Cl [(S)-3d] .
Result: 600 nM
